Hello, the source for this data is patent US20110281938, in case you need it.

- target: TFPI (tissue factor pathway inhibitor, full-length) (Homo sapiens, UniProt P10646 SEQ:1-276)
- Sequence (P10646 29-304): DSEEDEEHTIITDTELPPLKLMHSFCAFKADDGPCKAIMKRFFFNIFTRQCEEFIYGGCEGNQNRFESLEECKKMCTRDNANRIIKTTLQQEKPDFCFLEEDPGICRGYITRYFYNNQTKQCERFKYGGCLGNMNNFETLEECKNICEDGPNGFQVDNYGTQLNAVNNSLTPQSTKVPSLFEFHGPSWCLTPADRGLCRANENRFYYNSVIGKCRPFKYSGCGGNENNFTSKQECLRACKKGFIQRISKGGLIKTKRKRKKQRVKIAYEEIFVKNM
- protocol description: competition; dot-blot; CAT criterion not met
- conditions used: tags: American Diagnostica 4500PC/4900PC, E. coli expressed
Catalogue of binding signal readings, one per entry.

Here are 3 binders together with their reported answers.
binder: GGAAUAUGCUUGGCUCGUUAGGUGCGUAUAUA (XNA, 2'-OMe except dC9, dC14, dC16, dC25; 3' idT) [ARC34870]
readout name: binding signal
result: ≤ 5 fold IC50 vs ARC17480
--
binder: GGAAAAUACUUGGCUCGUUAGGUGCGUAUAUA (XNA, 2'-OMe except dC9, dC14, dC16, dC25; 3' idT) [ARC34864]
readout name: binding signal
result: ≤ 5 fold IC50 vs ARC17480
--
binder: GGAAUCUACUUGGCUCGUUAGGUGCGUAUAUA (XNA, 2'-OMe except dC9, dC14, dC16, dC25; 3' idT) [ARC34867]
readout name: binding signal
result: ≤ 5 fold IC50 vs ARC17480

Q: Consider the binder shown here: GGAAUAUCCUUGGCUCGUUAGGUGCGUAUAUA (XNA, 2'-OMe except dC9, dC14, dC16, dC25; 3' idT) [ARC34871] What is its recorded binding signal?
A: > 5 fold IC50 vs ARC17480
